Target: UBC9 (residues 2-158 of human UBC9) (human, UniProt P63279 2-158)
Sequence (P63279 2-158): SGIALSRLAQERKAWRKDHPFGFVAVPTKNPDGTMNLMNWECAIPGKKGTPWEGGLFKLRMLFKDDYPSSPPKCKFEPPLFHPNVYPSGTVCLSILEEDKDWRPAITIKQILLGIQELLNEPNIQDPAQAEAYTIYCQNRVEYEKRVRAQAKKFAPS
Assay: ITC
quantity: Kd

| binder | quantity | observed |
| --- | --- | --- |
| ΔN-SUMO1 (residues 17-97 of human SUMO1) (domain or fragment, UniProt P63165 17-97, looked up) KEGEYIKLKVIGQDSSEIHFKVKMTTHLKKLKESYAQRQGVPMNSLRFLFEGQRIADNHTPKELGMEEEDVIEVYQEQTGG | Kd | 73 nM |
